Molecular target: SALL4 ZFC4 WT (HT-SELEX) (Mus musculus, UniProt Q8BX22 870-940)
Sequence: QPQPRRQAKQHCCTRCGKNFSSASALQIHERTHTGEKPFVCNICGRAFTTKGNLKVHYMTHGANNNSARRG
Assay: HT-SELEX; high values mean tight binding
Conditions: protein: recombinant; vector His6-GST; dsDNA, one strand shown
Item-by-item account of log10(binding signal)
Units before log transform: fold-change vs cycle 0; reported quantity: binding signal; transform: log10.

# annotated cases, reported log10(binding signal) shown
- primarySequence: "TACCTA"
  reportedResult: 0.13
- primarySequence: "GATTCC"
  reportedResult: -0.05
- primarySequence: "CCATCG"
  reportedResult: -0.41

Prompt: Given the sequence `GAGGAC` , what is its reported log10(binding signal)?
Response: -0.34

Prompt: Lookup `CCTTGA`
Response: -0.06

Prompt: Lookup `GGAGAC`
Response: -0.33

Prompt: Lookup `ACGTGG`
Response: -0.43

Prompt: Lookup `AATGGG`
Response: -0.11

Prompt: Lookup `CCCAGA`
Response: -0.37

Prompt: Lookup `ACGGAC`
Response: -0.47

Prompt: Lookup `AATGGA`
Response: 0.14

Prompt: Lookup `GATGCA`
Response: -0.17

Prompt: Lookup `TCAAGA`
Response: 0.12

Prompt: Lookup `TCCTAA`
Response: 0.16

Prompt: Lookup `CCTTCG`
Response: -0.40

Prompt: Lookup `GCACAC`
Response: -0.46

Prompt: Lookup `ATTAAC`
Response: 0.31

Prompt: Lookup `AAACTT`
Response: 0.26

====

Biological target: SALL4 ZFC4 G921D (HT-SELEX) (Mus musculus, UniProt Q8BX22 870-940, G921D)
Sequence: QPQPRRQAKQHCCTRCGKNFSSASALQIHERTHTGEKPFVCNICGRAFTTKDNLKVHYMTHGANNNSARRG
Experiment: HT-SELEX; high values mean tight binding
Details: protein: recombinant; vector His6-GST; dsDNA, one strand shown
Item-by-item account of binding signal
Number first, unit second: that is the form wanted.

- primarySequence: "ACATCC"
  binding signal: "0.991 fold-change vs cycle 0"
- primarySequence: "CTTACC"
  binding signal: "1.02 fold-change vs cycle 0"
- primarySequence: "CGAGTC"
  binding signal: "0.578 fold-change vs cycle 0"

Now examine the next entry.
Prompt: Given the sequence `CACCAA` , what is its reported binding signal?
Response: 0.859 fold-change vs cycle 0

====

Molecular target: SALL4 ZFC4 R900W (HT-SELEX) (Mus musculus, UniProt Q8BX22 870-940, R900W)
Sequence: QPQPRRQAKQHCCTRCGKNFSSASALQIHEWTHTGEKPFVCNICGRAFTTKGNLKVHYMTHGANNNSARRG
Test: HT-SELEX; high values mean tight binding
Conditions: protein: recombinant; vector His6-GST; dsDNA, one strand shown
Flag rule - binding signal less than 0.9 fold-change vs cycle 0 flags true (1); the remaining entries get false (0).

Prompt: Say whether its binding signal is strictly beneath 0.9 fold-change vs cycle 0. Entry: `CCTTAA`
Response: false (0)

Prompt: Lookup `GGGCAA`
Response: true (1)

Prompt: Lookup `CAGCGC`
Response: true (1)

Prompt: Lookup `CCCTAA`
Response: false (0)

Prompt: Lookup `ACGACC`
Response: true (1)

Prompt: Lookup `TCATCA`
Response: false (0)

Prompt: Lookup `GTATGA`
Response: false (0)

Prompt: Lookup `ACACAC`
Response: true (1)

Prompt: Lookup `AAGCGT`
Response: true (1)

Prompt: Lookup `AAGCCG`
Response: true (1)
